All figures here come from paper PMC2922993.

So I've got a bunch of binders here, and I need their Kd values.
Target: T1, inhibitor of growth 2 (ING2) PHD finger
T1 sequence (Q9H160 whole entry, species assumed, looked up): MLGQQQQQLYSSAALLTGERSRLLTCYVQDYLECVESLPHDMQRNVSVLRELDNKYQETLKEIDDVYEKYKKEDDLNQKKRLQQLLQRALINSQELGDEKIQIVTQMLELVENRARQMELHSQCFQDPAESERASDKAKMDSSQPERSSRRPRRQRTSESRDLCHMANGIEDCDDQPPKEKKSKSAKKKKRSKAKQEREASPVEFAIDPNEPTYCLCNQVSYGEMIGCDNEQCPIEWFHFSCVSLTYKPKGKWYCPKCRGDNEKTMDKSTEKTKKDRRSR
Assay: ITC
Non-standard residues stand in square brackets, D forms with d. No end group written: not given here. Lys(Me3) = C[N+](C)(C)CCCC[C@H](N)C(=O)O; Arg(Me2s) = CN=C(NC)NCCC[C@H](N)C(=O)O
# answer = value followed by unit

Look up Kd for this binder: ART[Lys(Me3)]QTARKSTG [H3K4me3 peptide (ITC)]
0.98 µM

Fill in the blank: the reported Kd of A[Arg(Me2s)]T[Lys(Me3)]QTARKSTG [H3 peptide bearing K4me3 and R2me2s marks] is ____.
17.3 µM
